target: human TNF-α (human, UniProt P01375 77-233); test: cell-based or functional assay
Sequence (P01375 77-233 R107D limits assumed): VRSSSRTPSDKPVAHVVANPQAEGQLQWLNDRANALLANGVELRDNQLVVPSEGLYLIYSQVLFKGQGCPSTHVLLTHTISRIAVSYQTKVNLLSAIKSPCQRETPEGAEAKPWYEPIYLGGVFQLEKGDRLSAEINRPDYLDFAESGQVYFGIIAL
Measured hu TNF neutralization IC50 (L929 bioassay) of individual entries
Report only the number, with the unit nM understood.

// solved cases for hu TNF neutralization IC50 (L929 bioassay) follow
- BINDER: "hMAK195-AM17 (antibody, V domains shown, Full-length IgG; also called rHC22; hMAK195 rHC22) VH: EVQLVESGGGLVQPGGSLRLSCAASGFTFSNYGVTWVRQAPGKGLEWVSMIWADGSTDYADTVKGRFTISRDNSKNTLYLQMNSLRAEDTAVYYCAREWQHGPVAYWGQGTLVTVSS VL: DIQMTQSPSSLSASVGDRVTITCKASQAVSSAVAWYQQKPGKAPKLLIYWASTRHTGVPSRFSGSGSGTDFTLTISSLQPEDFATYYCQQHYSTPFTFGQGTKLEIKR"
  SCALE UNIT: "nM"
  ENDPOINT RESULT: 0.0031
- BINDER: "hMAK195-AM14 (antibody, V domains shown, Full-length IgG; also called rHC3; hMAK195 rHC3) VH: EVQLVESGGGLVQPGGSLRLSCAASGFTFSNYGVSWVRQAPGKGLEWVSMIWADGSTHYASSLKGRFTISRDNSKNTLYLQMNSLRAEDTAVYYCAREWQHGPVAYWGQGTLVTVSS VL: DIQMTQSPSSLSASVGDRVTITCKASQAVSSAVAWYQQKPGKAPKLLIYWASTRHTGVPSRFSGSGSGTDFTLTISSLQPEDFATYYCQQHYSTPFTFGQGTKLEIKR"
  SCALE UNIT: "nM"
  ENDPOINT RESULT: 0.0401
- BINDER: "hMAK195-AM25 (antibody, V domains shown, Full-length IgG; also called S4-24; hMAK195 S4-24) VH: EVQLVESGGGLVQPGGSLRLSCAASGFTFSNYGVTWVRQAPGKGLEWVSMIWADGSTHYASSVKGRFTISRDNSKNTLYLQMNSLRAEDTAVYYCAREWQHGPVAYWGQGTLVTVSS VL: DIQMTQSPSSLSASVGDRVTITCRASQLVSSAVAWYQQKPGKAPKLLIYWASTLHTGVPSRFSGSGSGTDFTLTISSLQPEDFATYYCQQHYRTPFTFGQGTKLEIKR"
  SCALE UNIT: "nM"
  ENDPOINT RESULT: 0.0114

Q: Item under review: hMAK195-AM16 (antibody, V domains shown, Full-length IgG; also called rHC19; hMAK195 rHC19) VH: EVQLVESGGGLVQPGGSLRLSCAASGFTFSNYGVTWVRQAPGKGLEWVSMIWADGSTHYASSVKGRFTISRDNSKNTLYLQMNSLRAEDTAVYYCAREWQHGPAAYWGQGTLVTVSS VL: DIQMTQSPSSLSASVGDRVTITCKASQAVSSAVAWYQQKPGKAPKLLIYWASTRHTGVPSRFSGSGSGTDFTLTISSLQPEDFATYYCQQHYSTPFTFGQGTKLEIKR . Reported hu TNF neutralization IC50 (L929 bioassay)?
A: 0.0105
